# Test system: NB4
# assayProtocol: cells
# testConditions: read-out: LC50; NB4 leukemia cells, MTT, 48 or 72 hr
quantityMeasured: CC50 (µM)

- compound: "Nc1ccn([C@@H]2O[C@H](CO)[C@@H](O)[C@@H]2O)c(=O)n1 [Ara-C, reference compound]"
  value: 7.32

###

# System: NB4
# assayProtocol: cells

- compound: "O=C(CCCCCCC(=O)Nc1ccccc1)NO [SAHA, reference compound]"
  outputUnit: "nM"
  CC50: 928

###

# System: U937
# assayProtocol: cells

- compound: "O=C(CCCCCCC(=O)Nc1ccccc1)NO [SAHA, reference compound]"
  target: "U937"
  outputUnit: "µM"
  CC50: 5.85

Data provenance: patent US9598364B2
